system: S. aureus 1840; assay: Minimal inhibitory concentration (M.I.C.), agar dilution method; type: cell-based, Staphylococcus aureus; details: TSA, inoculum 10^7 /ml
measured-endpoint: minimal inhibitory concentration (M.I.C.)
Output: the number by itself.

Below, 2 compounds whose answers are already recorded.
# compound, val
data = [
    ("CCCCNC(=O)O/N=C(\\C(=O)NC1C(=O)N2C(C(=O)O)=C(CSc3nnnn3C)CSC12)c1csc(=N)[nH]1 (stereo not drawn) [Example II - 22]", 3.13),
    ("CNC(=O)O/N=C(\\C(=O)NC1C(=O)N2C(C(=O)[O-])=C(C[n+]3ccc(C(N)=O)cc3)CSC12)c1csc(=N)[nH]1 (stereo not drawn) [Example IV - 2]", 3.13),
]

// next item, minimal inhibitory concentration (M.I.C.) requested
Lab note: need minimal inhibitory concentration (M.I.C.) with S. aureus 1840 for entry CCNC(=O)O/N=C(\C(=O)NC1C(=O)N2C(C(=O)O)=C(CSc3nnc(C)s3)CSC12)c1csc(=N)[nH]1 (stereo not drawn) [Example II - 10] , please look it up. 1.56

---

system: P. rettgeri TN 338; test: Minimal inhibitory concentration (M.I.C.), agar dilution method; format: cell-based, Proteus rettgeri; conditions: TSA, inoculum 10^7 /ml
measured-endpoint: minimal inhibitory concentration (M.I.C.)

Some compounds with recorded minimal inhibitory concentration (M.I.C.):
# compound, val
rows = [
    ("CCCCNC(=O)O/N=C(\\C(=O)NC1C(=O)N2C(C(=O)O)=C(COC(N)=O)CSC12)c1csc(=N)[nH]1 (stereo not drawn) [Example II - 21]", "≤ 0.012"),
    ("CNC(=O)O/N=C(\\C(=O)NC1C(=O)N2C(C(=O)O)=C(CSc3nnnn3CCN(C)C)CSC12)c1csc(=N)[nH]1 (stereo not drawn) [Example IV - 3]", "≤ 0.2"),
    ("CNC(=O)O/N=C(\\C(=O)NC1C(=O)N2C(C(=O)O)=C(C)CSC12)c1csc(=N)[nH]1 (stereo not drawn) [Example II - 6]", 0.024),
    ("CCNC(=O)O/N=C(\\C(=O)NC1C(=O)N2C(C(=O)O)=C(COC(N)=O)CSC12)c1csc(=N)[nH]1 (stereo not drawn) [Example II - 8]", "≤ 0.012"),
    ("CNC(=O)O/N=C(\\C(=O)NC1C(=O)N2C(C(=O)O)=C(COC(C)=O)CSC12)c1csc(=N)[nH]1 (stereo not drawn) [Example II - 1]", "≤ 0.012"),
]

Item under review: CNC(=O)O/N=C(\C(=O)NC1C(=O)N2C(C(=O)[O-])=C(C[n+]3ccc(C(N)=O)cc3)CSC12)c1csc(=N)[nH]1 (stereo not drawn) [Example IV - 2] . Reported minimal inhibitory concentration (M.I.C.)? 0.1

Similarly, CC(C)NC(=O)O/N=C(\C(=O)NC1C(=O)N2C(C(=O)O)=C(CSc3nnnn3C)CSC12)c1csc(=N)[nH]1 (stereo not drawn) [Example II - 18] ? ≤ 0.012

---

Tested on: P. rettgeri TN 338
Experiment: Minimal inhibitory concentration (M.I.C.), agar dilution method
Assay type: cell-based, Proteus rettgeri
Conditions: TSA, inoculum 10^7 /ml
Description: (a) Determination of minimal inhibitory concentrations (Tables 1 to 8): Procedure: agar dilution method
measured-endpoint: minimal inhibitory concentration (M.I.C.)

Here is how some molecules turned out for minimal inhibitory concentration (M.I.C.).
# molecule, system-under-test, val
records = [
    ("CC(=O)OCC1=C(C(=O)O)N2C(=O)C(NC(=O)/C(=N\\OC(=O)NC(C)C)c3csc(=N)[nH]3)C2SC1 (stereo not shown)", "P. rettgeri TN 338", "≤ 0.012"),
    ("CNC(=O)O/N=C(\\C(=O)NC1C(=O)N2C(C(=O)O)=C(CSc3nc(C)ns3)CSC12)c1csc(=N)[nH]1 (stereo not shown)", "P. rettgeri TN 338", "≤ 0.2"),
    ("CNC(=O)O/N=C(\\C(=O)NC1C(=O)N2C(C(=O)O)=C(CSc3nnc(C)o3)CSC12)c1csc(=N)[nH]1 (stereo not shown)", "P. rettgeri TN 338", "≤ 0.2"),
    ("CCNC(=O)O/N=C(\\C(=O)NC1C(=O)N2C(C(=O)O)=C(C)CSC12)c1csc(=N)[nH]1 (stereo not shown)", "P. rettgeri TN 338", 0.05),
    ("CNC(=O)O/N=C(\\C(=O)NC1C(=O)N2C(C(=O)O)=C(CSc3nnnn3C)CSC12)c1csc(=N)[nH]1 (stereo not shown)", "P. rettgeri TN 338", "≤ 0.012"),
]

What value of measured minimal inhibitory concentration (M.I.C.) is listed for CCNC(=O)O/N=C(\C(=O)NC1C(=O)N2C(C(=O)O)=C(CSc3nnc(C)s3)CSC12)c1csc(=N)[nH]1 (stereo not shown) ? ≤ 0.05

Now the same for CCCCNC(=O)O/N=C(\C(=O)NC1C(=O)N2C(C(=O)O)=C(C)CSC12)c1csc(=N)[nH]1 (stereo not shown) 0.1

Try the molecule CNC(=O)O/N=C(\C(=O)NC1C(=O)N2C(C(=O)O)=C(CSc3nc(CC(=O)O)cs3)CSC12)c1csc(=N)[nH]1 (stereo not shown) ≤ 0.2

Next molecule: Cc1nnc(SCC2=C(C(=O)[O-])N3C(=O)C(NC(=O)Cn4cnnn4)[C@H]3SC2)s1.[Na+] (stereo partly shown) [Cefazolin, reference compound] ≤ 0.2

Moving on to CNC(=O)O/N=C(\C(=O)NC1C(=O)N2C(C(=O)O)=C(CSc3nnnn3CCO)CSC12)c1csc(=N)[nH]1 (stereo not shown) ≤ 0.2
